molecular target: Estrogen receptor (Homo sapiens); test: qHTS assay to identify small molecule agonists of the estrogen receptor alpha (ER-alpha) signaling pathway (AID 743075); conditions: HEK293 ER-alpha-UAS-bla, beta-lactamase FRET ratio, 18 h; series mostly up to 70.1 µM;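 note: HEK293 GripTite cells with ER-alpha and UAS-driven beta-lactamase reporter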
Activity calls are given as the source filed them. Calls come from the whole dose curve.
I would appreciate it if you answered using one of these outcomes: yes = active, no = inactive

## Task Hey, what did the test say about CCON=O ?
## Result no

## Task Hey, what did the test say about O=c1c2ccccc2[se]n1-c1ccccc1 ?
## Result no

## Task Hey, what did the test say about COc1ccc(C(c2ccc(OC)cc2)C(Cl)(Cl)Cl)cc1 ?
## Result yes

## Task Hey, what did the test say about [2H]C([2H])([2H])[C@H](N)Cc1ccccc1 ?
## Result no

## Task Hey, what did the test say about O=C(CCl)c1ccc(Oc2ccc(C(=O)CCl)cc2)cc1 ?
## Result no

## Task Hey, what did the test say about CN1CCCC(=C(c2cccs2)c2cccs2)C1 ?
## Result no

## Task Hey, what did the test say about c1ccc(C2(c3ccccc3)CC2C2=NCCN2)cc1 (configuration not stated) ?
## Result no

---

experiment: qHTS assay for identifying genotoxic compounds that show differential cytotoxicity against isogenic chicken DT40 cell lines with known DNA damage response pathways - wild type cell line (AID 743012); conditions: DT40 wild type chicken cells viability, CellTiter-Glo, 40 h; series mostly up to 68.4 µM; note: nearly all actives have a fitted effect of over 60% in size
Inconclusive results are not listed. Activity calls are given as the source filed them. The call rests on the fitted dose curve; in most records, active means well fitted cell-killing curve with a large enough effect in the repeat runs; inconclusive means weak or mixed curves, or effect the other way; inactive means no such curve, though single readings can be large or run the other way.
I would appreciate it if you answered using one of these outcomes: active, inactive

## Task Hey, what did the test say about CN[C@H]1C[C@@H](N)[C@H](O)[C@@H](O[C@@H]2O[C@H](CO)[C@H](O)[C@@H]3OC4(O[C@H]23)O[C@H](C(N)CO)[C@H](O)[C@H](O)[C@H]4O)[C@@H]1O (stereo not given in full) ?
## Result inactive

## Task Hey, what did the test say about CCCCCCCCCC(=O)O[C@H]1CC[C@H]2[C@@H]3CCC4=CC(=O)CC[C@]4(C)[C@H]3CC[C@]12C ?
## Result inactive

## Task Hey, what did the test say about C[C@@H]1[C@H](O)[C@@H](C)/C=C/C=C/CC/C=C/C=C/C=C/C=C/[C@H](O[C@H]2O[C@@H](C)[C@H](O)[C@@H](N)[C@H]2O)CC2O[C@](O)(C[C@@H](O)[C@H](O)CC[C@@H](O)C[C@@H](O)C[C@@H](O)CC(=O)O[C@H]1C)C[C@H](O)[C@H]2C(=O)O ?
## Result inactive

## Task Hey, what did the test say about Clc1ccc(C(Cn2ccnc2)OCc2csc3c(Cl)cccc23)c(Cl)c1 (stereo not given) ?
## Result active

## Task Hey, what did the test say about C[C@]12CC[C@@H]3c4ccc(OC(=O)N(CCCl)CCCl)cc4CC[C@H]3[C@@H]1CC[C@@H]2OP(=O)(O)O ?
## Result inactive

---

Experiment: qHTS assay to identify small molecule antagonists of the glucocorticoid receptor (GR) signaling pathway - cell viability counter screen (AID 720693); note: nearly all actives have a fitted effect of over 55% in size; note: potency is the fitted concentration of half-maximal effect
Conditions: GR-bla HeLa viability, CellTiter-Glo luminescence, 18 h, with 5 nM dexamethasone present; series mostly up to 58.5 µM
Excerpt: National Center for Advancing Translational Sciences [NCATS] NIH Chemical Genomics Center [NCGC] U.S. Environmental Protection Agency [EPA] National Institutes of Environmental Health Sciences [NIEHS] National Toxicology Program [NTP] U.S. Food and Drug Administration [FDA] The Glucocorticoid receptor (GR) is one of the members of the nuclear receptor family of ligand-dependent transcription factors. […] The activation of the reporter gene under culture conditions can be detected by fluorescence intensity. […]
Records with an inconclusive call do not appear. The source made the active and inactive calls. Calls come from the whole dose curve; as a rule, active = well fitted cell-killing curve with a large enough effect in the repeat runs; inconclusive = weak or mixed curves, or effect the other way; inactive = no such curve, though single readings can be large or run the other way.
MEASUREMENT_NAME: Potency

{"columns": ["COMPOUND", "ENDPOINT_VALUE"],
 "data": [
  ["C[C@H]1CC[C@]2(NC1)O[C@H]1C[C@H]3[C@@H]4CC[C@H]5C[C@@H](O[C@@H]6O[C@H](CO)[C@H](O[C@@H]7O[C@H](CO)[C@@H](O)[C@H](O[C@@H]8OC[C@@H](O)[C@H](O)[C@H]8O)[C@H]7O[C@@H]7O[C@H](CO)[C@@H](O)[C@H](O)[C@H]7O)[C@H](O)[C@H]6O)CC[C@]5(C)[C@H]4CC[C@]3(C)[C@H]1[C@@H]2C", "2.39 µM (active)"],
  ["N#CC1(N2CCCCC2)CCCCC1", "inactive"],
  ["CN1c2ccccc2C(NCCCCCCC(=O)O)c2ccc(Cl)cc2S1(=O)=O (stereo not drawn)", "inactive"],
  ["CCOc1ccc2c3c1O[C@H]1[C@@H](O)C=C[C@H]4[C@@H](C2)N(C)CC[C@@]341", "inactive"],
  ["[2H]C([2H])([2H])[C@H](N)Cc1ccccc1", "inactive"],
  ["CCCCCc1cc(O)c2c(c1)OC(C)(C)c1ccc(C)cc1-2", "13.4 µM (active)"],
  ["CNC(C)Cc1ccccc1 (stereo not drawn)", "inactive"],
  ["C=CCN(C1=NCCN1)c1c(Cl)cccc1Cl", "inactive"]
]}

## Task Given the entry CN(C)CCCCCCN(C)C (tested in a mixture with another compound) , report its measured Potency.
## Result inactive

## Task Given the entry CCCCc1ccc(C(=O)O)nc1 , report its measured Potency.
## Result inactive

## Task Given the entry Clc1ccccc1-c1ccccc1Cl , report its measured Potency.
## Result inactive

## Task Given the entry c1ccc2c(c1)Sc1ccccc1N2C[C@@H]1CN2CCC1CC2 , report its measured Potency.
## Result inactive

## Task Given the entry CCN(CC)/[N+]([O-])=N/O , report its measured Potency.
## Result inactive
